# Kd per record follows
Biological target: T1, human IL-18BP (human, UniProt O95998 31-194)
T1 construct: UniProt printed as 095998; also called hIL-18BP
T1 sequence: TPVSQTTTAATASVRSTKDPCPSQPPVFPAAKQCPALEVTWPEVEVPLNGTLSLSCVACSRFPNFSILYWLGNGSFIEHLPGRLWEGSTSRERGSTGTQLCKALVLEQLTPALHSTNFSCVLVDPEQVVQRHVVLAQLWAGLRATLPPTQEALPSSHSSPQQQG
Assay: BLI, apparent KD

{"columns": ["BINDER", "UNIT SPEC", "Kd"],
 "data": [
  ["SA301a HC-Y100S (antibody, V domains shown) VH: QVQLQESGPGLVKPSQTLSLTCTVSGYSITSDYNSHWIRQPPGKGLEWIGYIHYSGSTNYNPSLKSRVTISRDTSKNQFSLKLSSVTAADTAVYYCARNYGSISVNYFDYWGQGTLVTVSS VL: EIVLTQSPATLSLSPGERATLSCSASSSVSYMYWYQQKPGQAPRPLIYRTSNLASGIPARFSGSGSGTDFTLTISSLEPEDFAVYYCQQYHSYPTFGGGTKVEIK", "pM", 720],
  ["SA301a HC-V100aE (antibody, name in Kabat numbering, V domains shown, IgG1 kappa) VH: QVQLQESGPGLVKPSQTLSLTCTVSGYSITSDYNSHWIRQPPGKGLEWIGYIHYSGSTNYNPSLKSRVTISRDTSKNQFSLKLSSVTAADTAVYYCARNYGSIYENYFDYWGQGTLVTVSS VL: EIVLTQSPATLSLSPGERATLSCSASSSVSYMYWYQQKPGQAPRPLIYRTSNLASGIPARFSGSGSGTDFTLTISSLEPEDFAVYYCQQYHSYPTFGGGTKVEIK", "pM", 510],
  ["SA301a HC-Y100T (antibody, V domains shown) VH: QVQLQESGPGLVKPSQTLSLTCTVSGYSITSDYNSHWIRQPPGKGLEWIGYIHYSGSTNYNPSLKSRVTISRDTSKNQFSLKLSSVTAADTAVYYCARNYGSITVNYFDYWGQGTLVTVSS VL: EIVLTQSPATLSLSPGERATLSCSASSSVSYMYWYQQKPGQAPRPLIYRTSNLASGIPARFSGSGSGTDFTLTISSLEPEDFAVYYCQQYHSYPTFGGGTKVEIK", "pM", 1080],
  ["SA301a HC-Y100D (antibody, V domains shown) VH: QVQLQESGPGLVKPSQTLSLTCTVSGYSITSDYNSHWIRQPPGKGLEWIGYIHYSGSTNYNPSLKSRVTISRDTSKNQFSLKLSSVTAADTAVYYCARNYGSIDVNYFDYWGQGTLVTVSS VL: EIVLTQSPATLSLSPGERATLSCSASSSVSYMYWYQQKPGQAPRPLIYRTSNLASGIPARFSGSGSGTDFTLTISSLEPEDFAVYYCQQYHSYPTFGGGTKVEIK", "pM", 560],
  ["SA301a HC-I99Q (antibody, name in Kabat numbering, V domains shown, IgG1 kappa) VH: QVQLQESGPGLVKPSQTLSLTCTVSGYSITSDYNSHWIRQPPGKGLEWIGYIHYSGSTNYNPSLKSRVTISRDTSKNQFSLKLSSVTAADTAVYYCARNYGSQYVNYFDYWGQGTLVTVSS VL: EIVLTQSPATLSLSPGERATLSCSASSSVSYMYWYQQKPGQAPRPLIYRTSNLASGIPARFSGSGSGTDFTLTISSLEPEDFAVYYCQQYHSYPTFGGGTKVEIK", "pM", 250]
]}
